- tgt: SMYD3 (Homo sapiens (Human), UniProt Q9H7B4)
- Sequence (Q9H7B4 whole entry): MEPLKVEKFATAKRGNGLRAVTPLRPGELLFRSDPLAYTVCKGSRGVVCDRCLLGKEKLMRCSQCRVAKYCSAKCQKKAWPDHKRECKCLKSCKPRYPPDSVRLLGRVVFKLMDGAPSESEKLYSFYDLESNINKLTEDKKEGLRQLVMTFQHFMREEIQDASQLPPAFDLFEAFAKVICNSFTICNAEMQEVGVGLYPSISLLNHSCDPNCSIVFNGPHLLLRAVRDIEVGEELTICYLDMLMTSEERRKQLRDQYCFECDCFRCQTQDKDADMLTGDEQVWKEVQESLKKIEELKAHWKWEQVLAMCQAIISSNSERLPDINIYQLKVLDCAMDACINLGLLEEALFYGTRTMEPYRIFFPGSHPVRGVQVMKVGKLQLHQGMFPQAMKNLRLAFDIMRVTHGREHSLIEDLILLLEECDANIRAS
- procedureText: SMYD3 biochemical assay (SMYD3 enzyme assay on MEKK2 protein substrate, 3H-SAM scintillation proximity assay)
- conditionSet: read-out: SMYD3 Biochem IC50
The entries below are paired with their reported IC50.

// solved cases for IC50 follow
N[C@H]1CC[C@H](NC(=O)c2cncs2)CC1 :: > 100 µM
CC(NC(=O)C1C[C@@H]2C=C[C@H]1C2)C1CCN(C(=O)[C@H](C)N)CC1 (stereo partly drawn) :: > 100 µM
NCCC(=O)N[C@H]1CC[C@H](NC(=O)c2ccncc2F)CC1 :: > 100 µM
Cn1ncnc1C(=O)N[C@H]1CC[C@H](N)CC1 :: > 100 µM
Cc1cnc(C(=O)NC(C)C2CCN(C(=O)[C@H](C)N)CC2)s1 (stereo partly drawn) :: 10.6 µM
Cc1nn(C(C)C(=O)N[C@H]2CC[C@H](N)CC2)c(C)c1Br (stereo partly drawn) :: > 100 µM
N[C@H]1CC[C@H](NC(=O)C2C[C@@H]3C=C[C@H]2C3)CC1 (stereo partly drawn) :: > 100 µM
CC1Oc2ccc(C(=O)NC(C)C3CCN(C(=O)[C@H](C)N)CC3)cc2NC1=O (stereo partly drawn) :: 25.4 µM

// IC50 lookup, compound = Cc1n[nH]c(C)c1C(=O)N[C@H]1CC[C@H](N)CC1 , result: > 100 µM
